Reference source for all entries: patent US20210275641A1

Below is a list of entries, each paired with its recorded pSTAT5 ratio YT CD25/YT, dilution factor 4, upper table value.
Target: T1, human high affinity trimeric IL-2 receptor (CD25/CD122/CD132) (human, UniProt P01589 22-272; P14784 27-551; P31785 23-369)
T1 sequence 1: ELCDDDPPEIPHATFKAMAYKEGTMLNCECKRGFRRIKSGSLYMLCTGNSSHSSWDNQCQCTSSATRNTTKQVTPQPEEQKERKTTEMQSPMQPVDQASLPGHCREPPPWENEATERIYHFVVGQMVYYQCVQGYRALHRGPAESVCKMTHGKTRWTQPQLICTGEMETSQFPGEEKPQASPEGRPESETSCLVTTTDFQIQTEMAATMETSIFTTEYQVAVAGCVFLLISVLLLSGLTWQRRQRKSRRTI
T1 sequence 2: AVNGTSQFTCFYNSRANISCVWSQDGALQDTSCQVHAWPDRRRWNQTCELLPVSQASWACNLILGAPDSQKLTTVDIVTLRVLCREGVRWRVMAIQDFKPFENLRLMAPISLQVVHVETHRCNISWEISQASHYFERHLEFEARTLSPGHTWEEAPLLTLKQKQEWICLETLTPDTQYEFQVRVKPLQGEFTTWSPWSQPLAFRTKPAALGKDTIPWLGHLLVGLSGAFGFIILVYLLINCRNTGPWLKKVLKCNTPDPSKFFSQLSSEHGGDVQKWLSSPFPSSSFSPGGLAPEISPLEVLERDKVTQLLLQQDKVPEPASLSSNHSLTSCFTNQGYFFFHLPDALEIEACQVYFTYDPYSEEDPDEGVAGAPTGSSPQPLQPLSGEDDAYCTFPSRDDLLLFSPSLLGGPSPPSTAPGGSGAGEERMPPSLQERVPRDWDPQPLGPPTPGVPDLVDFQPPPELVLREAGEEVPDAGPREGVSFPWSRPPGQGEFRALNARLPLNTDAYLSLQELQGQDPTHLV
T1 sequence 3: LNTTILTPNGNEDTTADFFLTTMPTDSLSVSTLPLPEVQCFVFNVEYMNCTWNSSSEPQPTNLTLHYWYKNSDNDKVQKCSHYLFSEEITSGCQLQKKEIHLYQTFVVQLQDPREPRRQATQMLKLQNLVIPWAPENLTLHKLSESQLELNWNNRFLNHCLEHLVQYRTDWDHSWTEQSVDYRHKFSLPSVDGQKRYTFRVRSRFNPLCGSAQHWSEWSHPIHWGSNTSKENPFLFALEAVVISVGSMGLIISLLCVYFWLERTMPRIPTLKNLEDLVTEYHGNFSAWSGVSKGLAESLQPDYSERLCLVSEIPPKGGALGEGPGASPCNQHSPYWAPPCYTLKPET
Experiment: cell-based or functional assay
measured-parameter: pSTAT5 ratio YT CD25/YT, dilution factor 4, upper table

binder: MEH (ligand) cytokine: APTSSSTKKTQLQLEHLMLDLEMILNGINNYKNPKLTRMLTFKFYMPKKATELKHLQCLEEELKPLEEVLNLAQSKNFHLRPRDLISNINVIVLELKGSETTFMCEYADETATIVEFLNRWITFCHSIISTLT
result-number: 1.2

binder: EEH (ligand) cytokine: APTSSSTKKTQLQLEHLELDLEMILNGINNYKNPKLTRMLTFKFYMPKKATELKHLQCLEEELKPLEEVLNLAQSKNFHLRPRDLISNINVIVLELKGSETTFMCEYADETATIVEFLNRWITFCHSIISTLT
result-number: 2.3

binder: GEH (ligand) cytokine: APTSSSTKKTQLQLEHLGLDLEMILNGINNYKNPKLTRMLTFKFYMPKKATELKHLQCLEEELKPLEEVLNLAQSKNFHLRPRDLISNINVIVLELKGSETTFMCEYADETATIVEFLNRWITFCHSIISTLT
result-number: 3.5

binder: KEH (ligand) cytokine: APTSSSTKKTQLQLEHLKLDLEMILNGINNYKNPKLTRMLTFKFYMPKKATELKHLQCLEEELKPLEEVLNLAQSKNFHLRPRDLISNINVIVLELKGSETTFMCEYADETATIVEFLNRWITFCHSIISTLT
result-number: 1
